Target: TDP-43 (Homo sapiens, UniProt Q13148 1-414)
Sequence (Q13148 whole entry): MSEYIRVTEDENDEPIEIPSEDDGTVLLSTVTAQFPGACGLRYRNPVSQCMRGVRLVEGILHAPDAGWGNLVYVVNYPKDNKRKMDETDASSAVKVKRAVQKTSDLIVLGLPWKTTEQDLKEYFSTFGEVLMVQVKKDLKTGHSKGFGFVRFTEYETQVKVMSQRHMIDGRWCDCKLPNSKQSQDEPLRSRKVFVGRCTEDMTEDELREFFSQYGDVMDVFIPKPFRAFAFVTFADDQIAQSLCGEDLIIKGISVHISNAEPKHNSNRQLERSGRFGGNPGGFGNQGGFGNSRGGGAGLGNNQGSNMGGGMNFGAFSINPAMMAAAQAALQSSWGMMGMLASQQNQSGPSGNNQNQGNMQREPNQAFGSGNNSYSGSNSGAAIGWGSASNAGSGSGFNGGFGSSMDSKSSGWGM
Test: RNA Bind-n-Seq with designed 260-mer pool; 25 mM Tris-HCl, 150 mM KCl, 3 mM MgCl2, BSA (printed 500 mg/mL), 20 units/mL SUPERase IN; pH not stated; 500 nM RNA pool, 1 h, 4 C; TDP-43 5, 50, 500 nM; high values mean tight binding
Conditions: protein: recombinant; tags: SBP (GST cleaved off with PreScission; pGEX-GST-SBP)
The full ranking holds about 9,900 sequences; the median of “r (bound/input frequency ratio)” is about 0.7, and the highest 2% start at about 6.5. Shown is part of a subset that was picked to be rich in the highest values.
EXPERIMENTAL_ENDPOINT: binding signal

BINDER	binding signal
ENSMUSG00000058297.288|Spock2 (ssRNA) RNA: GGGAGUUCUACAGUCCGACGAUCGCUUCGAUAUCCGCAUGCUAAGAGAGAGAGAGAGAGAGAGAGAGAGAGAGAAAGAGAGAGAGAAUGAGAGAGAAUGAGAGAGAGAAUACCCGAGGGCCACCCUGAUGCCCAGGAAGAGUGAGGGCAGCCCCCUGUGUGGUGGAAGAGGCUGGGCAGCUAGCUACUGGGGACCUUGUGCUGAGGCUUCCAGGACAAAGCCCCAGUCUGGCUCUCCCCCAGCCUCUCAGGGGCACUGGCUGGUCACAUCCACUGAGUAUUGAUCGGUUGGACUUUAGGGAAGCUCUUGCGGUCGCACUAGUGUGGAAUUCUCGGGUGUCAAGG	7.62 R (bound/input frequency ratio)
ENSMUSG00000061578.130|Ksr2 (ssRNA) RNA: GGGAGUUCUACAGUCCGACGAUCGCUUCGAUAUCCGCAUGCUAACCUUUACCAGUUCACCAUCAUUCAUGGCUUCCCCCAAAGUCCCGAGUCCUGAGAACCGGGGCUGUGGCAAGAGAGUUCUGGUGUGUUCUCUCUGUGGGGCUAGCAAUGCCGGGGUUAAGUUCUCCCUCGGUGAUGGAGACGGUCCUGGGUAUGCAUGAUGGGUUACAUGGGUGUGUGUGUGUGUGUAACUGUUUACAAUGGUCUCCCUGCCUCUCACGGGCUGUGUUCCAGGAGAAUGCACAUAGAGAGGUUCUGUGGUCUCUUGCGGUCGCACUAGUGUGGAAUUCUCGGGUGUCAAGG	6.59 R (bound/input frequency ratio)
ENSMUSG00000022095.101|Fam160b2 (ssRNA) RNA: GGGAGUUCUACAGUCCGACGAUCGCUUCGAUAUCCGCAUGCUAUGCUCUACCCUCCUGGAGGCUGUUGCAAAAUUCCCAACUGCCUCCUGGCAGAGGCCCAAAGUAUGCUCUGCGCCCAGGCGGGGGCAGCUGCUAACAAGAGCCCUGGCGCAGCUGCAGCCAGGGCAGGCGAGAGCCUUGGAGCUGGGUGCCAGGCUCCAGCUCCAGCUCCAGCUGGUUCCUCUCUGGCGCCUUCUGAACCCGUCUCAGCAAGUCCGAAACACCUGGGCAGAGAGGUCAUUGACCAGGGAUGGGGGCCCUUGCUCUUGCGGUCGCACUAGUGUGGAAUUCUCGGGUGUCAAGG	0.743 R (bound/input frequency ratio)
ENSMUSG00000058297.286|Spock2 (ssRNA) RNA: GGGAGUUCUACAGUCCGACGAUCGCUUCGAUAUCCGCAUGCUAUGUGUGAGAGAGAGAGAGAGAGAGAGAGAGAGAGAGAGAGAGAAAGAGAGAGAGAAUGAGAGAGAAUGAGAGAGAGAAUACCCGAGGGCCACCCUGAUGCCCAGGAAGAGUGAGGGCAGCCCCCUGUGUGGUGGAAGAGGCUGGGCAGCUAGCUACUGGGGACCUUGUGCUGAGGCUUCCAGGACAAAGCCCCAGUCUGGCUCUCCCCCAGCCUCUCAGGGGCACUGGCUGGUCACAUCCACUGAGUAUUGAUCGGUUGGCUCUUGCGGUCGCACUAGUGUGGAAUUCUCGGGUGUCAAGG	6.3 R (bound/input frequency ratio)
ENSMUSG00000061578.131|Ksr2 (ssRNA) RNA: GGGAGUUCUACAGUCCGACGAUCGCUUCGAUAUCCGCAUGCUAACCAGUUCACCAUCAUUCAUGGCUUCCCCCAAAGUCCCGAGUCCUGAGAACCGGGGCUGUGGCAAGAGAGUUCUGGUGUGUUCUCUCUGUGGGGCUAGCAAUGCCGGGGUUAAGUUCUCCCUCGGUGAUGGAGACGGUCCUGGGUAUGCAUGAUGGGUUACAUGGGUGUGUGUGUGUGUGUAACUGUUUACAAUGGUCUCCCUGCCUCUCACGGGCUGUGUUCCAGGAGAAUGCACAUAGAGAGGUUCUGUGGUCUCUGCCUCUUGCGGUCGCACUAGUGUGGAAUUCUCGGGUGUCAAGG	3.31 R (bound/input frequency ratio)

### Prompt Recorded binding signal for ENSMUSG00000058297.285|Spock2 (ssRNA) RNA: GGGAGUUCUACAGUCCGACGAUCGCUUCGAUAUCCGCAUGCUAUGUGUGUGUGUGAGAGAGAGAGAGAGAGAGAGAGAGAGAGAGAGAGAGAAAGAGAGAGAGAAUGAGAGAGAAUGAGAGAGAGAAUACCCGAGGGCCACCCUGAUGCCCAGGAAGAGUGAGGGCAGCCCCCUGUGUGGUGGAAGAGGCUGGGCAGCUAGCUACUGGGGACCUUGUGCUGAGGCUUCCAGGACAAAGCCCCAGUCUGGCUCUCCCCCAGCCUCUCAGGGGCACUGGCUGGUCACAUCCACUGAGUAUUGAUCCUCUUGCGGUCGCACUAGUGUGGAAUUCUCGGGUGUCAAGG , please?
### Response 7.21 R (bound/input frequency ratio)

### Prompt Please do the same for ENSMUSG00000058297.297|Spock2 (ssRNA) RNA: GGGAGUUCUACAGUCCGACGAUCGCUUCGAUAUCCGCAUGCUAUGAGAGAGAGAAUACCCGAGGGCCACCCUGAUGCCCAGGAAGAGUGAGGGCAGCCCCCUGUGUGGUGGAAGAGGCUGGGCAGCUAGCUACUGGGGACCUUGUGCUGAGGCUUCCAGGACAAAGCCCCAGUCUGGCUCUCCCCCAGCCUCUCAGGGGCACUGGCUGGUCACAUCCACUGAGUAUUGAUCGGUUGGACUUUAGGGAAGAGCCUCCUCCUUCCCAUUCCUUUCUGCCACCCUGGAAUGGCCACCUUAAUCGUCCUCUUGCGGUCGCACUAGUGUGGAAUUCUCGGGUGUCAAGG as well.
### Response 4.65 R (bound/input frequency ratio)
